# reported_conditions: in toluene, 323 K
measurement_name: solubility (mole fraction)
Respond using a number only.

stdin: Consider the compound c1ccc2c(c1)Cc1ccccc1-2 and give its measured solubility (mole fraction).
stdout: 0.37

* * *

# reported_conditions: in n-propanol, 293 K
measurement_name: solubility (mole fraction)
Reply with just the number.

stdin: solubility (mole fraction) lookup needed for c1ccc2c(c1)Cc1ccccc1-2 , thanks.
stdout: 0.0115

* * *

# reported_conditions: in n-propanol, 288 K
measurement_name: solubility (mole fraction)
# print the numeric value only

stdin: Entry c1ccc2c(c1)Cc1ccccc1-2 has what solubility (mole fraction)?
stdout: 0.00903

* * *

# reported_conditions: in n-propanol, 313 K
measurement_name: solubility (mole fraction)
Would you mind answering with just the numeric figure?

stdin: Fill in the blank: the reported solubility (mole fraction) of c1ccc2c(c1)Cc1ccccc1-2 is ____.
stdout: 0.0215
